- assaySystem: USP1 (construct USP1 (I-785, GG670, 671AA)/UAF1 (I-677)-Flag) (Homo sapiens (Human), UniProt O94782, G670A/G671A)
- Sequence (O94782 whole entry G670A/G671A): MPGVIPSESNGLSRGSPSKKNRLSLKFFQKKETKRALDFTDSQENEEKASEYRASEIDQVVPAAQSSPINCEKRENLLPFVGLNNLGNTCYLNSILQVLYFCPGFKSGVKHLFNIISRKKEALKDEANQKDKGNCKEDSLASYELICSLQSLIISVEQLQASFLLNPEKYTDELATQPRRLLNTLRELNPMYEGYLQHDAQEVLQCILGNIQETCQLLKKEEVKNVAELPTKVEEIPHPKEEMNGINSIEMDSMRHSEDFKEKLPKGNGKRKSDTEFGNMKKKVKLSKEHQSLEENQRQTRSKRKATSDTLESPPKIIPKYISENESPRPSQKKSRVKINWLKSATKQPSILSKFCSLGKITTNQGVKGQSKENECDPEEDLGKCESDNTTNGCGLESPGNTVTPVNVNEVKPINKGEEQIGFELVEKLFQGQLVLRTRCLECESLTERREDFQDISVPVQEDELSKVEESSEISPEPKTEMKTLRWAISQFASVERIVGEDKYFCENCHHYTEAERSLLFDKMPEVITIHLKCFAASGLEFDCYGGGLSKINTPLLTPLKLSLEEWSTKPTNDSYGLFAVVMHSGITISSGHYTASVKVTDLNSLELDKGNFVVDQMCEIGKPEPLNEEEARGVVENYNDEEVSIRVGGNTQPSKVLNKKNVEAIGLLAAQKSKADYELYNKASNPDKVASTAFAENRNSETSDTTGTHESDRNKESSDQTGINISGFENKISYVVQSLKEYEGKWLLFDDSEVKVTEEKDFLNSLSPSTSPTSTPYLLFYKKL
- Sequence (Q8TAF3 whole entry partner): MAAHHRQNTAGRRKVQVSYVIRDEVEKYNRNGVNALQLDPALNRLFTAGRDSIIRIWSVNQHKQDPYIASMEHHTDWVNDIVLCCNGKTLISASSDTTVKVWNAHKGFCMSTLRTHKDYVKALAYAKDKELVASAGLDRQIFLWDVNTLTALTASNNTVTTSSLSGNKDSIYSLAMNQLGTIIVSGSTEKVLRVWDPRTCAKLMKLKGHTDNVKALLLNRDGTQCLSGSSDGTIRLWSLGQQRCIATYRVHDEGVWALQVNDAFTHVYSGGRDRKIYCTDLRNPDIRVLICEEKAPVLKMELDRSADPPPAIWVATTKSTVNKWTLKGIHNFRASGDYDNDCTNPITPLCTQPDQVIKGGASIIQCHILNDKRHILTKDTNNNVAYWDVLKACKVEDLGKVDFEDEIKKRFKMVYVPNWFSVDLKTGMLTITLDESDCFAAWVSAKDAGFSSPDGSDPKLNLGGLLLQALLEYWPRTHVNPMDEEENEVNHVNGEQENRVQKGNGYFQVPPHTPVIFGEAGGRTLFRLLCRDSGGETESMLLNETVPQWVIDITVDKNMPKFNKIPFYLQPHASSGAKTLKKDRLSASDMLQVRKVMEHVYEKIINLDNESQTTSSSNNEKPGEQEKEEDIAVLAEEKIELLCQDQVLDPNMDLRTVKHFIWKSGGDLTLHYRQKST
- measurementDescription: Ubiquitin-Rhodamine 110 assay for USP1 activity
- testConditions: USP1/UAF1 25 pM, Ub-Rh110 25 nM, 30 min preincubation
pIC50: −log10 of the molar value.
property: pIC50

Please review the following examples before continuing.
{"columns": ["structureNotation", "pIC50"],
 "data": [
  ["CC(C)c1ccccc1-c1ncc2[nH]c(=O)n(Cc3ccc(-c4ncn(C)n4)cc3)c2n1", "6.70 to 7.30"],
  ["CC(C)c1ccccc1-c1ncc2c(n1)n(CC1CCN(S(=O)(=O)c3nccn3C)CC1)c(=O)n2C", "5.70 to 6.70"],
  ["CCC(N)(CC)c1cn(-c2ccc(Cn3c(=O)[nH]c4cnc(-c5ccccc5C(C)C)nc43)cc2)nn1", "< 5.70"],
  ["Cc1cccn1-c1ccc(Cn2c(=O)[nH]c3cnc(-c4cccnc4C(C)C)nc32)cc1", "5.70 to 6.70"],
  ["CC(C)C(=O)N1CCC(Cn2c(=O)n(C)c3cnc(-c4ccccc4C(C)C)nc32)CC1", "< 5.70"]
]}

[in] Supply reported pIC50 belonging to this molecule: `CC(=O)N1CCC(c2ccn(-c3ccc(Cn4c(=O)[nH]c5cnc(-c6c(F)cccc6C(C)C)nc54)cc3)n2)CC1`
[out] > 7.30

[in] Supply reported pIC50 belonging to this molecule: `CC(C)c1ccccc1-c1ncc2[nH]c(=O)n(Cc3ccc(-c4cn(CCN(C)C)nn4)cc3)c2n1`
[out] 5.70 to 6.70

====

- assaySystem: USP1 (construct USP1 (I-785, GG670, 671AA)/UAF1 (I-677)-Flag) (Homo sapiens (Human), UniProt O94782, G670A/G671A)
- measurementDescription: Ubiquitin-Rhodamine 110 assay for USP1 activity
- testConditions: USP1/UAF1 25 pM, Ub-Rh110 25 nM, 30 min preincubation
pIC50: −log10 of the molar value.
property: pIC50

Please review the following examples before continuing.
{"columns": ["structureNotation", "property", "recordedValue"],
 "data": [
  ["COC[C@@H](C)Nc1ncccc1-c1ncc2[nH]c(=O)n(Cc3ccc(-c4nc(C(F)(F)F)cn4C)cc3)c2n1", "pIC50", "5.70 to 6.70"],
  ["CC(C)c1ccccc1-c1ncc2[nH]c(=O)n(Cc3ccc(-n4cc(C(C)(C)N)nn4)cc3)c2n1", "pIC50", "< 5.70"],
  ["CC(C)c1ccccc1-c1ncc2[nH]c(=O)n(Cc3ccc(C(=O)NCc4nccn4C)cc3)c2n1", "pIC50", "5.70 to 6.70"]
]}

[in] Supply reported pIC50 belonging to this compound: `Cc1cc(Cl)nn1-c1ccc(Cn2c(=O)[nH]c3cnc(-c4cccnc4C(C)C)nc32)cc1`
[out] > 7.30

[in] Supply reported pIC50 belonging to this compound: `CC(C)c1ccccc1-c1ncc2c(n1)n(Cc1ccc(-c3nc(C#N)cn3C)cc1)c(=O)n2C`
[out] > 7.30

[in] Supply reported pIC50 belonging to this compound: `O=c1[nH]c2cnc(-c3ccccc3OCC(F)(F)F)nc2n1Cc1ccc(-n2cccn2)cc1`
[out] 5.70 to 6.70

[in] Supply reported pIC50 belonging to this compound: `CC(=O)N1CCC(c2ccn(-c3ccc(Cn4c(=O)[nH]c5cnc(-c6ccccc6C(C)C)nc54)cc3)n2)CC1`
[out] > 7.30

[in] Supply reported pIC50 belonging to this compound: `CC(C)c1ncccc1-c1ncc2[nH]c(=O)n(Cc3ccc(-c4nc(C(F)(F)F)cn4C4CN(C)C4)cc3)c2n1`
[out] > 7.30

[in] Supply reported pIC50 belonging to this compound: `CC(C)c1ccccc1-c1ncc2c(n1)n(Cc1ccc(-c3nc(C(F)(F)F)cn3C3CN(C)C3)cc1)c(=O)n2C`
[out] > 7.30

====

- assaySystem: USP1 (construct USP1 (I-785, GG670, 671AA)/UAF1 (I-677)-Flag) (Homo sapiens (Human), UniProt O94782, G670A/G671A)
- measurementDescription: Ubiquitin-Rhodamine 110 assay for USP1 activity
- testConditions: USP1/UAF1 25 pM, Ub-Rh110 25 nM, 30 min preincubation
Measured IC50, listed per entry.

Please review the following examples before continuing.
{"columns": ["compound", "IC50"],
 "data": [
  ["CC(C)c1ccccc1-c1ncc2c(n1)n(Cc1ccc(-c3ccc(CCN(C)C)cc3)cc1)c(=O)n2C [Compound I-262]", "50 to 200 nM"],
  ["CC(C)c1ccccc1-c1ncc2[nH]c(=O)n(Cc3ccc(C(=O)N4CCC[C@H]4CO)cc3)c2n1 [Compound I-382]", "200 to 2000 nM"],
  ["CC(C)c1ccccc1-c1ncc2[nH]c(=O)n(Cc3ccc(-n4ccc(N5CCNCC5)n4)cc3)c2n1 [Compound I-432]", "200 to 2000 nM"]
]}

Consider the record given below.
[in] Supply reported IC50 belonging to this compound: O=c1[nH]c2cnc(-c3cc(C(F)(F)F)ccc3C3CC3)nc2n1Cc1ccc(-n2cccn2)cc1 [Compound I-97]
[out] 200 to 2000 nM

====

- assaySystem: USP1 (construct USP1 (I-785, GG670, 671AA)/UAF1 (I-677)-Flag) (Homo sapiens (Human), UniProt O94782, G670A/G671A)
- measurementDescription: Ubiquitin-Rhodamine 110 assay for USP1 activity
- testConditions: USP1/UAF1 25 pM, Ub-Rh110 25 nM, 30 min preincubation
- Description: Example 53: Ubitquin-Rhodamine 110 Assay for USP1 Activity […] Nanoliter quantities of either an 8-point or 10-point, 3-fold serial dilution in DMSO was pre-dispensed into assay plates (Perkin Elmer, ProxiPlate-384 F Plus, #6008269) for a final test concentration range of either 25 μM to 11 nM or 25 μM to 1.3 nM, respectively. […] Fluorescence was read on the Envision (Excitation at 485 nm and Emission at 535 nm; Perkin Elmer) or on the PheraSTAR (Excitation at 485 nm and Emission at 535 nm; BMG Labtech). […]
property: IC50

Please review the following examples before continuing.
{"columns": ["structureNotation", "IC50"],
 "data": [
  ["COCCn1cc(C(F)(F)F)nc1-c1ccc(Cn2c(=O)[nH]c3cnc(-c4cccnc4C(C)C)nc32)cc1", "50 to 200 nM"],
  ["CC(C)c1ccccc1-c1ncc2[nH]c(=O)n(Cc3ccc(C(=O)N(C)C(C)C)cc3)c2n1", "< 50 nM"],
  ["CC(C)c1ccccc1-c1ncc2[nH]c(=O)n([C@H](C)c3ccc(-n4ccnn4)cc3)c2n1", "200 to 2000 nM"]
]}

Consider the record given below.
[in] Supply reported IC50 belonging to this compound: `COc1cccc(-c2ncc3[nH]c(=O)n(Cc4ccc(-n5cccn5)cc4)c3n2)c1C(C)C`
[out] 200 to 2000 nM

====

Measured IC50, listed per entry.
- assaySystem: USP1 (construct USP1 (I-785, GG670, 671AA)/UAF1 (I-677)-Flag) (Homo sapiens (Human), UniProt O94782, G670A/G671A)
- measurementDescription: Ubiquitin-Rhodamine 110 assay for USP1 activity
- testConditions: USP1/UAF1 25 pM, Ub-Rh110 25 nM, 30 min preincubation

{"columns": ["compound", "IC50"],
 "data": [
  ["Cn1cc(C(F)(F)F)nc1-c1ccc(Cn2c(=O)[nH]c3cnc(-c4cccnc4OCC4CC4)nc32)cc1", "< 50 nM"],
  ["CCn1c(=O)n(Cc2ccc(-c3nc(C(F)(F)F)cn3C)cc2)c2nc(-c3cccnc3C(C)C)ncc21", "< 50 nM"],
  ["CC(C)c1ccccc1-c1ncc2c(n1)n(Cc1ccc(-c3cccc4cn[nH]c34)cc1)c(=O)n2C", "50 to 200 nM"],
  ["CC(C)c1ccccc1-c1ncc2c(n1)n(Cc1ccc(-c3cccc4ncnn34)cc1)c(=O)n2C", "50 to 200 nM"],
  ["CCC(C)Oc1ncccc1-c1ncc2[nH]c(=O)n(Cc3ccc(-c4nc(C(F)(F)F)cn4C)cc3)c2n1 (stereo not drawn)", "< 50 nM"],
  ["CC(C)NC(=O)Nc1ccc(Cn2c(=O)n(C)c3cnc(-c4ccccc4C(C)C)nc32)cc1", "50 to 200 nM"],
  ["COCC1CCCN(C(=O)c2ccc(Cn3c(=O)[nH]c4cnc(-c5ccccc5C(C)C)nc43)cc2)C1 (stereo not drawn)", "50 to 200 nM"],
  ["CC(C)c1ncccc1-c1ncc2[nH]c(=O)n(Cc3ccc(-n4ccc(C5CCN(C)CC5)n4)cc3)c2n1", "> 2000 nM"],
  ["CC(C)c1ccccc1-c1ncc2[nH]c(=O)n(Cc3ccc(-c4nccn4C)cc3)c2n1", "< 50 nM"],
  ["CCn1ccnc1-c1ccc(Cn2c(=O)n(C)c3cnc(-c4ccccc4C(C)C)nc32)cc1", "< 50 nM"]
]}

[in] Supply reported IC50 belonging to this compound: `CC(C)c1ccccc1-c1ncc2c(n1)n(Cc1ccc(OCc3cncn3C)cc1)c(=O)n2C`
[out] 200 to 2000 nM

[in] Supply reported IC50 belonging to this compound: `CC(C)c1ccccc1-c1ncc2c(n1)n(Cc1ccc(-c3nccn3C)cc1)c(=O)n2C`
[out] < 50 nM

[in] Supply reported IC50 belonging to this compound: `CC(C)c1ccccc1-c1ncc2[nH]c(=O)n(Cc3ccc(C(=O)NCCN(C)C)cc3)c2n1`
[out] > 2000 nM

[in] Supply reported IC50 belonging to this compound: `CC(C)c1ccccc1-c1ncc2c(n1)n(Cc1ccc(N(C)CC3CC3)cc1)c(=O)n2C`
[out] 200 to 2000 nM

[in] Supply reported IC50 belonging to this compound: `CN1CCC(c2ccn(-c3ccc(Cn4c(=O)[nH]c5cnc(-c6cccnc6OCC(F)(F)F)nc54)cc3)n2)CC1`
[out] 200 to 2000 nM
